Exercise: for every item that follows, state its recorded protein stability index.
B1: MLL5 (parent)
chain: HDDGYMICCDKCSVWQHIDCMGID

Variants of: B1
protocol-notes: protein stability index of a GFP-peptide fusion (GPS, HEK-293T) (PSI 1-6); higher = more stable;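 also: lentivirally expressed fusions sorted by FACS into six bins by GFP to DsRed ratio, PSI derived from sequencing read proportions per bin multiplied by bin number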
run-conditions: c terminus: a fixed tail appended
Format: numeric value only, no unit, no commentary.

D10M has a reported protein stability index of 2.95

C12Y has a reported protein stability index of 2.91

D3R has a reported protein stability index of 2.02

I7W has a reported protein stability index of 3.09

Data provenance: the supplement of paper PMC10567573
